- Test system: ASPS-1 complex tumor spheroids, viability
- test description: Anticancer human tumor ASPS-1 cell line growth inhibition;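 further: spheroids exposed to agents for 7 days after 3 days of growth; 100% = DMSO vehicle treated spheroids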
- reported conditions: second compound 0.0003 µM; first compound 0.316 µM; hits give low values
Please note: viability, T/C exactly at 90% is criterion not met. Only values below 90% get criterion met.

# example entries with known answers
* CC(C)n1c(=O)n(C)c2cnc3cc(F)c(-c4ccc(OCCCN5CCCCC5)nc4)cc3c21 + COc1cc2c(cc1O)CCNC21CSC2c3c(OC(C)=O)c(C)c4c(c3C(COC1=O)N1C(O)C3Cc5cc(C)c(OC)c(O)c5C(C21)N3C)OCO4 | criterion met
* Cc1cc(C)c(CNC(=O)c2cc(-c3ccc(CN4CCOCC4)cc3)cc3c2cnn3C2CCCC2)c(=O)[nH]1 + COc1cc2c(cc1O)CCNC21CSC2c3c(OC(C)=O)c(C)c4c(c3C(COC1=O)N1C(O)C3Cc5cc(C)c(OC)c(O)c5C(C21)N3C)OCO4 | criterion not met
* [2H]c1nc(C)nc([2H])c1-c1cc(NC[C@@H](C)c2cccc3c(C(=O)NC)ccnc23)ncn1 + COc1cc2c(cc1O)CCNC21CSC2c3c(OC(C)=O)c(C)c4c(c3C(COC1=O)N1C(O)C3Cc5cc(C)c(OC)c(O)c5C(C21)N3C)OCO4 | criterion not met
* CC1COCCN1c1cc(-c2ccnn2C)c2ccnc(-c3ccn[nH]3)c2n1 (stereo unspecified) + COc1cc2c(cc1O)CCNC21CSC2c3c(OC(C)=O)c(C)c4c(c3C(COC1=O)N1C(O)C3Cc5cc(C)c(OC)c(O)c5C(C21)N3C)OCO4 | criterion met
* COc1cc(C)[nH]c(=O)c1CN1CCc2c(Cl)cc(C(OC)C3COC3)c(Cl)c2C1=O (stereo unspecified) + COc1cc2c(cc1O)CCNC21CSC2c3c(OC(C)=O)c(C)c4c(c3C(COC1=O)N1C(O)C3Cc5cc(C)c(OC)c(O)c5C(C21)N3C)OCO4 | criterion not met

Kindly review the next molecule as well.
Ask: # strict comparison: is reported viability, T/C < 90%? input = COc1ccc([C@@H](O)c2cc(-c3ncnc4cc(N5CCOCC5)ccc34)c(F)cc2Cl)nn1 + COc1cc2c(cc1O)CCNC21CSC2c3c(OC(C)=O)c(C)c4c(c3C(COC1=O)N1C(O)C3Cc5cc(C)c(OC)c(O)c5C(C21)N3C)OCO4
Reply: criterion not met

====

- System: ASPS-1 complex tumor spheroids, viability
- test description: Anticancer human tumor ASPS-1 cell line growth inhibition;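 further: spheroids exposed to agents for 7 days after 3 days of growth; 100% = DMSO vehicle treated spheroids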
- reported conditions: second compound 94.9 pM; first compound 1 µM; hits give low values
measure name: viability, T/C (%)
Answers are plain numbers, in %.

• Cc1cc(C)c(CNC(=O)c2cc(-c3ccc(CN4CCOCC4)cc3)cc3c2cnn3C2CCCC2)c(=O)[nH]1 + COc1cc2c(cc1O)CCNC21CSC2c3c(OC(C)=O)c(C)c4c(c3C(COC1=O)N1C(O)C3Cc5cc(C)c(OC)c(O)c5C(C21)N3C)OCO4 = 99.5
• CC(C)n1c(=O)n(C)c2cnc3cc(F)c(-c4ccc(OCCCN5CCCCC5)nc4)cc3c21 + COc1cc2c(cc1O)CCNC21CSC2c3c(OC(C)=O)c(C)c4c(c3C(COC1=O)N1C(O)C3Cc5cc(C)c(OC)c(O)c5C(C21)N3C)OCO4 = 72.7
• CC1COCCN1c1cc(-c2ccnn2C)c2ccnc(-c3ccn[nH]3)c2n1 (stereo unspecified) + COc1cc2c(cc1O)CCNC21CSC2c3c(OC(C)=O)c(C)c4c(c3C(COC1=O)N1C(O)C3Cc5cc(C)c(OC)c(O)c5C(C21)N3C)OCO4 = 38.5
• COc1ccc([C@@H](O)c2cc(-c3ncnc4cc(N5CCOCC5)ccc34)c(F)cc2Cl)nn1 + COc1cc2c(cc1O)CCNC21CSC2c3c(OC(C)=O)c(C)c4c(c3C(COC1=O)N1C(O)C3Cc5cc(C)c(OC)c(O)c5C(C21)N3C)OCO4 = 96.7

# batch: return viability, T/C for each of the 2 compounds below
1. COc1cc(C)[nH]c(=O)c1CN1CCc2c(Cl)cc(C(OC)C3COC3)c(Cl)c2C1=O (stereo unspecified) + COc1cc2c(cc1O)CCNC21CSC2c3c(OC(C)=O)c(C)c4c(c3C(COC1=O)N1C(O)C3Cc5cc(C)c(OC)c(O)c5C(C21)N3C)OCO4
2. [2H]c1nc(C)nc([2H])c1-c1cc(NC[C@@H](C)c2cccc3c(C(=O)NC)ccnc23)ncn1 + COc1cc2c(cc1O)CCNC21CSC2c3c(OC(C)=O)c(C)c4c(c3C(COC1=O)N1C(O)C3Cc5cc(C)c(OC)c(O)c5C(C21)N3C)OCO4

Reply:
1: 101; 2: 98.2
